These entries and their values trace back to patent US20210363269A1.

Biological target: T1, BALBc mouse SIRP-α (mouse (BALB/c strain))
T1 chain: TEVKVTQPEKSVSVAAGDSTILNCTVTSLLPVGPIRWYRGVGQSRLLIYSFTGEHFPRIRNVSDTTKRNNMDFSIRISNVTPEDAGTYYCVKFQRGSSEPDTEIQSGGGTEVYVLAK
Assay: SPR
In this section we review reported pKd values for a set of binders.
On this scale, pKd is minus log10 of a concentration expressed in M (mol/L).

Observe how each entry below is paired with its result.
BINDER	VALUE KIND	MEAS VALUE
Hum1/AB27_HC_Mutall (antibody, V domains shown) VH: EVQLVESGGGVVQPGGSLRLSCAASGFRFSSYAMSWVRQAPGKGLEWVSGISSGGDTYYVDSVKGRFTISRDNSKNTLYLQMNSLRAEDTAVYYCARETWNHLFDYWGQGTLVTVSS VL: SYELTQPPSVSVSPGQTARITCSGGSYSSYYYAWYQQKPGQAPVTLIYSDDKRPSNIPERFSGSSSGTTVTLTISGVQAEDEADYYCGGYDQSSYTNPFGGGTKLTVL	pKd	8.24
Hum8/AB25_HC_Mutall (antibody, V domains shown) VH: EVQLVESGGGVVQPGGSLRLSCAASGFTFSSNAMSWVRQAPGKGLEWVAGISSGSDTYYGDSVKGRFTISRDNSKNTLYLQMNSLTAEDTAVYYCARETWNHLFDYWGQGTLVTVSS VL: SYELTQPPSVSVSPGQTARITCSGGAYSSYYYAWYQQKPGQAPVLVIYSDSKRPSGIPERFSGSSSGTTVTLTISGVQAEDEADYYCGGYDQSSYTNPFGGGTKLTVL	pKd	7.22

Output pKd of Hum8/AB21_HC_Mutall (antibody, V domains shown, also called Hum8/AB21mutall) VH: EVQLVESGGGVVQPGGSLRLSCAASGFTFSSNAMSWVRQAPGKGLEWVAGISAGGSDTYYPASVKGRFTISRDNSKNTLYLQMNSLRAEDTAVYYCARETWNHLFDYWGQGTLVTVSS VL: SYELTQPPSVSVSPGQTARITCSGGAYSSYYYAWYQQKPGQAPVLVIYSDSKRPSGIPERFSGSSSGTTVTLTISGVQAEDEADYYCGGYDQSSYTNPFGGGTKLTVL
7.15
